target: hNAMPT protein (Homo sapiens (Human)); assay: NAMPT enzyme assay (TR-FRET/HTRF, BodiPY ligand, anti 6His-Tb); format: binding; details: NAMPT inhibition, IC50 range class; read-out: IC50
Sequence (P43490 whole entry): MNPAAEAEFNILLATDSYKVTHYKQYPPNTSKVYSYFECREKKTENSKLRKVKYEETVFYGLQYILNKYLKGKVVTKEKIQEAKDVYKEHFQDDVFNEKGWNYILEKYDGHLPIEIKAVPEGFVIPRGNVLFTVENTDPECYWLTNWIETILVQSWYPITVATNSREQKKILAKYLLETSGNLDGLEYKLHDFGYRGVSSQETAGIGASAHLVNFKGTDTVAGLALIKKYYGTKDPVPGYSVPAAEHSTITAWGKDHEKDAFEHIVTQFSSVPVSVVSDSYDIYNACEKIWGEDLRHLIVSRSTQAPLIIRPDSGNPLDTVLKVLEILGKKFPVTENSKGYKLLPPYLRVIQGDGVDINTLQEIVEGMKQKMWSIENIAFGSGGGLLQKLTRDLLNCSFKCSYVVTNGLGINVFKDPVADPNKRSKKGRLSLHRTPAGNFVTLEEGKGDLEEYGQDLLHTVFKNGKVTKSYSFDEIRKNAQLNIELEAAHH
pIC50: −log10 of the molar value.
RESULT_TYPE: pIC50

[ask] What does the record list as pIC50 for `CC(C)Oc1nc2ccc(C(=O)NCCCc3ncc[nH]3)cc2nc1-c1ccc(F)c(Cl)c1` ?
[reply] > 7.00

[ask] Suppose we examine the compound `CC(C)Oc1cc(-c2nc3cc(C(=O)NCCCc4ncc[nH]4)ccc3nc2-c2ccc(F)cc2)c(F)cn1` ; what pIC50 value has been reported?
[reply] 6.30 to 7.00

[ask] I'd like to know its pIC50. The compound in question is `Cc1ncsc1-c1nc2cc(C(=O)NCCCc3ncc[nH]3)ccc2nc1-c1ccc(F)cc1`
[reply] > 7.00

[ask] GET /values?readout=pIC50&item= `CC(C)Oc1nc2ccc(C(=O)NCCc3cncn3C)cc2nc1-c1ccc(F)cc1`
[reply] 6.30 to 7.00

[ask] For the compound shown here, `O=C(NCc1nc2cnccc2[nH]1)c1ccc2nc(-c3ccc(F)cc3)c(-c3ccc(F)cc3)nc2c1` , give the reported pIC50.
[reply] > 7.00

[ask] Would you kindly share the measured pIC50 for `O=C(NCCCc1ncc[nH]1)c1ccc2nc(OCCc3cn[nH]c3)c(-c3ccc(F)cc3)nc2c1` ?
[reply] > 7.00

[ask] Quick check: pIC50 of `Cc1nn(C)cc1-c1nc2cc(C(=O)NCCCc3ncc[nH]3)ccc2nc1-c1ccc(F)cc1` ?
[reply] 6.30 to 7.00

[ask] # pIC50 lookup, item `Cc1ccc(C)c(-c2nc3cc(C(=O)NCCCc4ncc[nH]4)ccc3nc2-c2ccc(F)cc2)c1`
[reply] > 7.00

[ask] Recorded pIC50 for `COc1ccc(C)c(-c2nc3cc(C(=O)NCCCc4ncc[nH]4)ccc3nc2-c2ccc(F)cc2)c1` , please?
[reply] > 7.00

[ask] For the compound shown here, `COc1ccc(-c2nc3cc(C(=O)NCCCc4ncc[nH]4)ccc3nc2-c2ccc(F)cc2)cc1F` , give the reported pIC50.
[reply] 6.30 to 7.00

[ask] Any idea what pIC50 was measured for `COc1cccc(-c2nc3cc(C(=O)NCCCc4ncc[nH]4)ccc3nc2-c2ccc(F)cc2)c1` ?
[reply] > 7.00

[ask] Endpoint output: pIC50 of `CCOc1ccc(Cl)c(-c2nc3cc(C(=O)NCCCc4ncc[nH]4)ccc3nc2-c2ccc(F)cc2)c1` . Value?
[reply] 6.30 to 7.00

[ask] pIC50 lookup needed for `O=C(NCCCc1nnc[nH]1)c1ccc2nc(-c3ccc(F)cc3)c(-c3cc(Cl)ccc3F)nc2c1` , thanks.
[reply] > 7.00

[ask] pIC50 for `O=C(NCCCc1ncc[nH]1)c1ccc2nc(OCCc3ccccn3)c(-c3ccc(F)cc3)nc2c1` ?
[reply] > 7.00

[ask] Can you look up the measured pIC50 of `O=C(NCCCc1ncc[nH]1)c1ccc2nc(OCc3nccs3)c(-c3ccc(F)cc3)nc2c1` for me?
[reply] > 7.00

[ask] Given the compound `Cn1ccc(COc2nc3ccc(C(=O)NCCCc4ncc[nH]4)cc3nc2-c2ccc(F)cc2)n1` , what is its reported pIC50?
[reply] > 7.00

[ask] I am curious: what pIC50 value has been reported for `COc1cc(-c2nc3cc(C(=O)NCc4nc5cnccc5[nH]4)ccc3nc2-c2ccc(F)cc2)c(F)cn1` ?
[reply] > 7.00

[ask] Query (compound): `O=C(NCCCc1ncc[nH]1)c1ccc2nc(-c3ccc(F)cc3)c(-c3ccc(F)c(F)c3)nc2c1` ; field requested: pIC50
[reply] 6.30 to 7.00

[ask] If you can, please state the reported pIC50 value of `COc1cc(-c2nc3cc(C(=O)NCCCc4nnc[nH]4)ccc3nc2-c2ccc(F)cc2)c(F)cn1` .
[reply] 6.30 to 7.00

[ask] What pIC50 value was documented for this compound, `CCOc1cccc(-c2nc3cc(C(=O)NCCCc4ncc[nH]4)ccc3nc2-c2ccc(F)cc2)c1` ?
[reply] > 7.00

[ask] Sample `O=C(NCCCc1cn[nH]c1)c1ccc2nc(-c3ccc(F)cc3)c(-c3ccc(F)cc3)nc2c1` — what was its pIC50?
[reply] 6.30 to 7.00

[ask] What measured pIC50 goes with `Cc1ccc(-c2nc3cc(C(=O)NCCCc4ncc[nH]4)ccc3nc2-c2ccc(F)cc2)cc1` ?
[reply] 6.30 to 7.00

[ask] Endpoint output: pIC50 of `COc1ccc(-c2nc3cc(C(=O)NCCCc4ncc[nH]4)ccc3nc2-c2ccc(F)cc2)cc1` . Value?
[reply] 6.30 to 7.00

[ask] What does the record list as pIC50 for `CCOc1nc2ccc(C(=O)NCCCc3ncc[nH]3)cc2nc1-c1ccc(F)cc1` ?
[reply] > 7.00

[ask] Entry CN1CCCC(COc2nc3ccc(C(=O)NCCCc4ncc[nH]4)cc3nc2-c2ccc(F)cc2)C1 (stereo not drawn) : reported pIC50 = ?
[reply] > 7.00

[ask] Given `O=C(NCCCc1ncc[nH]1)c1ccc2nc(-c3ccc(F)cc3)c(-c3cc(Cl)ccc3F)nc2c1` , state its recorded pIC50.
[reply] > 7.00

[ask] Param item = `O=C(NCCCc1ncc[nH]1)c1ccc2nc(CN3CCOCC3)c(-c3ccc(F)cc3)nc2c1` ; retrieve measured pIC50.
[reply] 6.30 to 7.00

[ask] Quick one: pIC50 of `O=C(NCCCc1ncc[nH]1)c1ccc2nc(-c3ccc(F)cc3)c(-c3ccc(F)c(Cl)c3)nc2c1` ?
[reply] > 7.00

[ask] # get_value(readout='pIC50', item= `CC(C)Oc1nc2ccc(C(=O)NCc3ccc4nccn4c3)cc2nc1-c1ccc(F)cc1` )
[reply] 6.30 to 7.00

[ask] Quick one: pIC50 for `O=C(NCCCc1ncc[nH]1)c1ccc2nc(N3CCCC3)c(-c3ccc(F)cc3)nc2c1` ?
[reply] > 7.00
